Form field: melting point (one value per entry).
measurement.type: melting point

- COc1ccc2[nH]c3c(=O)[nH]c4ccccc4c3c2c1 [Compound 49]: 232 to 235 °C
- COc1ccc2c(c1)[nH]c1c(=O)[nH]c3ccccc3c12 [Compound 58]: 235 to 237 °C
- COc1ccc2[nH]c(=O)c3[nH]c4ccccc4c3c2c1 [Compound 46]: > 250 °C
- COc1ccc2c(c1)[nH]c(=O)c1[nH]c3ccc(OC)cc3c12 [Compound 50]: 192 to 195 °C
- O=c1[nH]c2ccc(O)cc2c2c1[nH]c1ccccc12 [Compound 48]: 235 to 238 °C

----------
Form field: remaining activity at 1 µM (one value per entry).
- subject.of.test: HsCdk5/p25 (Homo sapiens, UniProt Q00535)
- Sequence (Q00535 whole entry): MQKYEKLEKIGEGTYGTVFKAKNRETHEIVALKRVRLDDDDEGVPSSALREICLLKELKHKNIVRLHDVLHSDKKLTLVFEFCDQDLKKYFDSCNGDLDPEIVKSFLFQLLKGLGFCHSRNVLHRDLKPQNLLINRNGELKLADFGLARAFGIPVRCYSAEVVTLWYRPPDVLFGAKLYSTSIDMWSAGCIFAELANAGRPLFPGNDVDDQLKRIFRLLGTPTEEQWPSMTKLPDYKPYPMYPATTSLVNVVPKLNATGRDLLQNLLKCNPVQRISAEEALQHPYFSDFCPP
- Sequence (Q15078 99-307 partner limits assumed): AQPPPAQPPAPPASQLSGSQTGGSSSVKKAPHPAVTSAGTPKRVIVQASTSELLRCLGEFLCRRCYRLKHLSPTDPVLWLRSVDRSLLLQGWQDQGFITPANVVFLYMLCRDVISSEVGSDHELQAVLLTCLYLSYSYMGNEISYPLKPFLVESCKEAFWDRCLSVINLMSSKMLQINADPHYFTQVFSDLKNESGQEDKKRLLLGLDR
- assay: ADP-Glo kinase assay
- Assay type: biochemical, Homo sapiens (Hs)
- cond: mean n = 2, % of maximum activity of DMSO control, read-out: % Residual activity at 1 μM CDK5
measurement.type: remaining activity at 1 µM (%)

* COc1ccc2c(c1)c1c3cc(N(C)C)ccc3[nH]c(=O)c1n2C | 100
* COc1ccc2[nH]c3c(=O)[nH]c4ccc(O)cc4c3c2c1 | 53
* COc1ccc2[nH]c(=O)c3[nH]c4ccccc4c3c2c1 | 78
